- target.or.test.system: Phosphatidylinositol 4,5-bisphosphate 3-kinase catalytic subunit alpha isoform (Homo sapiens, UniProt P42336)
- Sequence (P42336 whole entry, canonical isoform): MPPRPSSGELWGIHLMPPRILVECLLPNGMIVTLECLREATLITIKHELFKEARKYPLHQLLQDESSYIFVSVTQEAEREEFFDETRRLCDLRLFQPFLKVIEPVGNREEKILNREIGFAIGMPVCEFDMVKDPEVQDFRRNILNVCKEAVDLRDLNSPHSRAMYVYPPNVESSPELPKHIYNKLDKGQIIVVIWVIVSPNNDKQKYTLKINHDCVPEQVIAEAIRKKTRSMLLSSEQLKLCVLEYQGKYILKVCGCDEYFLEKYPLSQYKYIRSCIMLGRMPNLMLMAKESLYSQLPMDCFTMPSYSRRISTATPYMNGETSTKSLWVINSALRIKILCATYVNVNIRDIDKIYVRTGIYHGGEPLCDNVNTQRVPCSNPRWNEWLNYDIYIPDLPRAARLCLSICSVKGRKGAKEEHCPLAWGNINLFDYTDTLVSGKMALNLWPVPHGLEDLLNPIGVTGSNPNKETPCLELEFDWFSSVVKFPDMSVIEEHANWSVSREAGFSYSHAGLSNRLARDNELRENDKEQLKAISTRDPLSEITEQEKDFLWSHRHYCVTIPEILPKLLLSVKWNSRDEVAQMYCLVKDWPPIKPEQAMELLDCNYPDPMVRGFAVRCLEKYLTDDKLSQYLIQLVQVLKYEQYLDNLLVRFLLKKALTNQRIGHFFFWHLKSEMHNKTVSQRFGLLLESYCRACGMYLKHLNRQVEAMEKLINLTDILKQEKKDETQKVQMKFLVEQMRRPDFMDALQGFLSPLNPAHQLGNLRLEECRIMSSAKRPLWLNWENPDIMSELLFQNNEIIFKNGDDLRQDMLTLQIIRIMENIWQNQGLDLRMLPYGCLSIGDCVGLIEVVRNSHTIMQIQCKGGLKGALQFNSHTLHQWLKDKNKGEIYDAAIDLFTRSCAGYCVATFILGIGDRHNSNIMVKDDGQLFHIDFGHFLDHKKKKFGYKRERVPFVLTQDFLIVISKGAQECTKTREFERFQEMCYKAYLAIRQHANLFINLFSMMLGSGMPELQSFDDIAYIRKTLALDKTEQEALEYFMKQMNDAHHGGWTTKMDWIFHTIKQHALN
- test.summary: Inhibition of human recombinant PI3Kalpha using PIP2 as substrate after 1 hr by Kinase-Glo luminescent assay
quantity.measured: pIC50
Numbers only, as −log10 of the molar value.

Find the recorded pIC50 belonging to CC(=O)Nc1cnc2ccc(-c3cnc4ccccc4c3)cc2c1Nc1ccc(N2CCN(C(C)=O)CC2)c(C(F)(F)F)c1 and report it.
5.82

* * *

- target.or.test.system: Phosphatidylinositol 4,5-bisphosphate 3-kinase catalytic subunit delta isoform (Homo sapiens)
- Sequence (O00329 whole entry, canonical isoform): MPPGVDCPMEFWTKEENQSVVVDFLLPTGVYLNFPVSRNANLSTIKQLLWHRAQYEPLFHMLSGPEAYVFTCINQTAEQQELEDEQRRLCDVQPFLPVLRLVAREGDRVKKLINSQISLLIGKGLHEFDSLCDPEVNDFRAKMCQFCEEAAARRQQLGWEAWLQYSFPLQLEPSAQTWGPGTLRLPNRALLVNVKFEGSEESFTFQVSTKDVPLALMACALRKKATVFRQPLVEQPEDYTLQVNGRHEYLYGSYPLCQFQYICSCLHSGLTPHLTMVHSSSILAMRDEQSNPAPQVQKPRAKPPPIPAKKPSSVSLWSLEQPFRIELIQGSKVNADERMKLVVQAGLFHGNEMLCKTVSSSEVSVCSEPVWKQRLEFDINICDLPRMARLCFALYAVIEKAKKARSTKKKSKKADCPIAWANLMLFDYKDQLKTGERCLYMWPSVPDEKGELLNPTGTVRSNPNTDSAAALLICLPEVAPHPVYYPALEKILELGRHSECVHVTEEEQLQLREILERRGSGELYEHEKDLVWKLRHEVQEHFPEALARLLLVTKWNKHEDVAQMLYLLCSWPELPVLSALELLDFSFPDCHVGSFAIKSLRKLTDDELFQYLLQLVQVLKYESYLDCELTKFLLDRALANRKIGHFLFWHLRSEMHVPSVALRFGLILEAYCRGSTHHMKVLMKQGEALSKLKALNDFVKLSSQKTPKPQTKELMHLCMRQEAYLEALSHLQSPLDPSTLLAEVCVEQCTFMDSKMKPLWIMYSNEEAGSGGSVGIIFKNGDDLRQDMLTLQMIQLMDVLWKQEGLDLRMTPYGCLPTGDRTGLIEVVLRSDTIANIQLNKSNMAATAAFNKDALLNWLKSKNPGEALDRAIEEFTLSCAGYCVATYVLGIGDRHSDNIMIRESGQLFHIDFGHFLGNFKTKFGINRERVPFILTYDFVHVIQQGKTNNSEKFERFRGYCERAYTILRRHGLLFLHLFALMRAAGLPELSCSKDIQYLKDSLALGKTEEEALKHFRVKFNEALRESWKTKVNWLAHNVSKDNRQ
- test.summary: Inhibition of PI3Kdelta (unknown origin) after 1 hr by ADP-Glo luminescent assay
quantity.measured: IC50 (µM)
Give bare numbers, in µM.

Find the recorded IC50 belonging to CC(=O)Nc1cnc2ccc(-c3cnc4ccccc4c3)cc2c1Nc1ccc(N2CCN(C(C)=O)CC2)c(C(F)(F)F)c1 and report it.
2.08
